test system: HCV 1b_Huh-Luc/Neo-ET cell line persistently expressing a bicistronic genotype 1b replicon in Huh 7 cells; test: HCV replicon assay (luciferase readout, 72 h); type: cell-based, HCV genotype 1b; settings: Hepatitis C virus, Huh-7, 72 h, read-out: Inhibition of HCV genotype 1b

| line.notation | EC50 |
| --- | --- |
| COC(=O)N[C@H](C(=O)N1CCC[C@H]1c1ncc(-c2ccc(C#Cc3ccc(-c4cnc([C@@H]5CCCN5C(=O)[C@@H](c5ccccc5)N5CCCC5)[nH]4)cc3)cc2)[nH]1)C(C)C | < 1 nM |
| COC(=O)N[C@H](C(=O)N1CCC[C@H]1c1ncc(C#Cc2ccc3cc(-c4cnc([C@@H]5CCCN5C(=O)[C@@H](NC(=O)OC)C5CCOCC5)[nH]4)ccc3c2)[nH]1)C1CCOCC1 | < 1 nM |
| COC(=O)N[C@H](C(=O)N1CCC[C@H]1c1ncc(-c2ccc3cc(C#Cc4ccc5nc([C@@H]6CCCN6C(=O)[C@@H](NC(=O)OC)C(C)C)[nH]c5c4)ccc3c2)[nH]1)C(C)C | < 1 nM |

###

test system: HCV 1b_Huh-Luc/Neo-ET cell line persistently expressing a bicistronic genotype 1b replicon in Huh 7 cells; assay: HCV replicon assay (luciferase readout, 72 h); type: cell-based, HCV genotype 1b; details: Hepatitis C virus, Huh-7, 72 h, read-out: Inhibition of HCV genotype 1b
attribute.measured: EC50

| molecule | result |
| --- | --- |
| O=C([C@@H](c1ccccc1)N1CCOCC1)N1CCC[C@H]1c1ncc(-c2ccc(C#Cc3ccc(-c4cnc([C@@H]5CCCN5C(=O)[C@@H](c5ccccc5)N5CCOCC5)[nH]4)cc3)cc2)[nH]1 [Compound 184] | < 1 nM |
| COCCOc1c(C#Cc2ccc3nc([C@@H]4CCCN4C(=O)[C@@H](NC(=O)OC)C(C)C)[nH]c3c2)ccc(-c2cnc([C@@H]3CCCN3C(=O)[C@H](NC(=O)OC)C(C)C)[nH]2)c1OCCOC [Compound 1066] | < 1 nM |
| COC(=O)N[C@@H](CC(=O)O)C(=O)N1CCC[C@H]1c1ncc(-c2ccc(C#Cc3ccc4nc([C@@H]5CCCN5C(=O)[C@H](CC(=O)O)NC(=O)OC)[nH]c4c3)cc2)[nH]1 [Compound 1061] | 10 to 999 nM |
| COC(=O)N[C@@H](C(=O)N[C@@H](C)c1ncc(-c2ccc(C#Cc3ccc(-c4cnc([C@@H]5CCCN5C(=O)[C@H](NC(=O)OC)C(C)C)[nH]4)cc3)cc2)[nH]1)C(C)C [Compound 290] | > 1000 nM |
| CN(C)[C@@H](C(=O)N1CCC[C@H]1c1ncc(-c2ccc(C#Cc3ccc(-c4cnc([C@@H]5CCCN5C(=O)[C@@H](c5ccccc5)N(C)C)[nH]4)cc3)cc2)[nH]1)c1ccccc1 [Compound 160] | < 1 nM |

###

test system: HCV 1b_Huh-Luc/Neo-ET cell line persistently expressing a bicistronic genotype 1b replicon in Huh 7 cells; assay: HCV replicon assay (luciferase readout, 72 h); assay type: cell-based, HCV genotype 1b; details: Hepatitis C virus, Huh-7, 72 h, read-out: Inhibition of HCV genotype 1b

| molecule | EC50 |
| --- | --- |
| COC(=O)N[C@H](C(=O)N1CCC[C@H]1c1nc(-c2ccc3cc(C#Cc4[nH]c([C@@H]5CCCN5C(=O)[C@@H](NC(=O)OC)C(C)C)nc4C(F)(F)F)ccc3c2)c[nH]1)C(C)C [Compound 1082] | < 1 nM |
| CC(C)(NC(=O)C1CC1)C(=O)N1CCC[C@H]1c1ncc(C#Cc2ccc(-c3cnc([C@@H]4CCCN4C(=O)C(C)(C)NC(=O)C4CC4)[nH]3)cc2)[nH]1 [Compound 108] | > 1000 nM |
| C[C@@H](c1ncc(-c2ccc(C#Cc3ccc(-c4cnc([C@@H]5CCCN5C(=O)[C@H](NC(=O)C5CC5)c5ccccc5)[nH]4)cc3)cc2)[nH]1)N(C)C(=O)[C@H](NC(=O)C1CC1)c1ccccc1 [Compound 278] | < 1 nM |
| CS(=O)(=O)N[C@@H](C(=O)N1CCC[C@H]1c1ncc(-c2ccc(C#Cc3ccc(-c4cnc([C@@H]5CCCN5C(=O)[C@@H](c5ccccc5)N5CCOCC5)[nH]4)cc3)cc2)[nH]1)c1ccccc1 [Compound 232] | < 1 nM |
| COC(=O)N[C@@H](C(=O)N1CCC[C@H]1c1ncc(C#Cc2ccc(C#Cc3cnc([C@@H]4CCCN4C(=O)[C@H](NC(=O)OC)c4ccccc4)[nH]3)cc2)[nH]1)c1ccccc1 [Compound 304] | < 1 nM |
| O=C(N[C@@H](C(=O)N1CCC[C@H]1c1ncc(-c2ccc(C#Cc3ccc(-c4cnc([C@@H]5CCCN5C(=O)[C@H](NC(=O)N5CCOCC5)c5ccccc5)[nH]4)cc3)cc2)[nH]1)c1ccccc1)N1CCOCC1 [Compound 248] | < 1 nM |
| CN1CCN(C(=O)N[C@@H](C(=O)N2CCC[C@H]2c2ncc(-c3ccc(C#Cc4ccc(-c5cnc([C@@H]6CCCN6C(=O)[C@H](NC(=O)C6CC6)c6ccccc6)[nH]5)cc4)cc3)[nH]2)c2ccccc2)CC1 [Compound 238] | < 1 nM |
| COC(=O)NCC(=O)N1CCC[C@H]1c1ncc(-c2ccc(C#Cc3ccc4nc([C@@H]5CCCN5C(=O)CNC(=O)OC)[nH]c4c3)cc2)[nH]1 [Compound 1049] | 10 to 999 nM |
| COC(=O)N[C@H](C(=O)N1CCC[C@H]1c1ncc(-c2ccc(C#Cc3ccc(-c4cnc([C@@H]5CCCN5C(=O)[C@H](NC(=O)N5CCC(C)(O)CC5)c5ccccc5)[nH]4)cc3)cc2)[nH]1)C(C)C [Compound 992] | < 1 nM |
| COC(=O)N[C@H](C(=O)N1CCC[C@H]1c1ncc(-c2ccc(C#Cc3ccc(-c4cnc([C@@H]5CCCN5C(=O)[C@@H](NC(=O)OC)[C@@H](C)O)[nH]4)cc3)cc2)[nH]1)[C@@H](C)O [Compound 283] | < 1 nM |
